Biological target: Peroxisome proliferator-activated receptor delta (Homo sapiens) (UniProt Q03181)
Sequence (Q03181 whole entry): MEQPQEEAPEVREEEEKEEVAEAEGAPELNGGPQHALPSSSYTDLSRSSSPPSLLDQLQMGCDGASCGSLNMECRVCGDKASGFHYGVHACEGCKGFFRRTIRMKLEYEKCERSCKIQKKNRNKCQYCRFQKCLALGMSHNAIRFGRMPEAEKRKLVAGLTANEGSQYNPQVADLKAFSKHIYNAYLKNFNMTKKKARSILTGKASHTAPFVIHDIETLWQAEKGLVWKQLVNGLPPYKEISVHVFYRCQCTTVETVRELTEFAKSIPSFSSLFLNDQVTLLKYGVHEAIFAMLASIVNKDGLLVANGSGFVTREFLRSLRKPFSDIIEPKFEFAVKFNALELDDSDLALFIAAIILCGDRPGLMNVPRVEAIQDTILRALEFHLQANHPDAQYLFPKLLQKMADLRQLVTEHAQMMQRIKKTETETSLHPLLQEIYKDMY
Assay: Binding affinity to PPARdelta (unknown origin) at 10 uM by TR-FRET based LanthaScreen competitive binding assay relative to control
What Activity was measured for each of the following?
State the value, then name its unit.

Look over these answered cases.
{"Smiles Entry": "O[C@H]1[C@@H](O)CO[C@@H]1Cn1cnc2c(NCc3cccc(F)c3)ncnc21", "Assay Metric": "Activity", "Reported Result": "8%"}
{"Smiles Entry": "O[C@H]1[C@@H](O)CO[C@@H]1Cn1cnc2c(NCc3cccc(F)c3)nc(Cl)nc21", "Assay Metric": "Activity", "Reported Result": "29.5%"}
{"Smiles Entry": "O[C@H]1[C@@H](O)CO[C@@H]1Cn1cnc2c(NCc3cccc(Cl)c3)ncnc21", "Assay Metric": "Activity", "Reported Result": "21.5%"}
{"Smiles Entry": "O[C@H]1[C@@H](O)CO[C@@H]1Cn1cnc2c(NCc3cccc(Br)c3)ncnc21", "Assay Metric": "Activity", "Reported Result": "1.2%"}

// switching to the query compound
// query Can you look up the measured Activity of O[C@H]1[C@@H](O)CO[C@@H]1Cn1cnc2c(NCc3cccc(I)c3)ncnc21 for me?
// result 16.3%

====

System: Mesenchymal stem cells
Test: cells
Conditions: Homo sapiens, 120 h
Description: Induction of adipogenesis in human differentiated BMMSC cells assessed as increase in adiponectin secretion and measured on 5 day in presence of IDX induction medium by ELISA
Assay Metric: EC50 (nM)
Give bare numbers, in nM.

// query Any idea what its EC50 is? The molecule is CCc1ccc(CCOc2ccc(CC3SC(=O)NC3=O)cc2)nc1 (stereo unspecified)
// result 900
